- experimental_system: Neurogenic locus notch homolog protein 3 (Homo sapiens) (UniProt Q9UM47)
- Sequence (Q9UM47 whole entry, looked up): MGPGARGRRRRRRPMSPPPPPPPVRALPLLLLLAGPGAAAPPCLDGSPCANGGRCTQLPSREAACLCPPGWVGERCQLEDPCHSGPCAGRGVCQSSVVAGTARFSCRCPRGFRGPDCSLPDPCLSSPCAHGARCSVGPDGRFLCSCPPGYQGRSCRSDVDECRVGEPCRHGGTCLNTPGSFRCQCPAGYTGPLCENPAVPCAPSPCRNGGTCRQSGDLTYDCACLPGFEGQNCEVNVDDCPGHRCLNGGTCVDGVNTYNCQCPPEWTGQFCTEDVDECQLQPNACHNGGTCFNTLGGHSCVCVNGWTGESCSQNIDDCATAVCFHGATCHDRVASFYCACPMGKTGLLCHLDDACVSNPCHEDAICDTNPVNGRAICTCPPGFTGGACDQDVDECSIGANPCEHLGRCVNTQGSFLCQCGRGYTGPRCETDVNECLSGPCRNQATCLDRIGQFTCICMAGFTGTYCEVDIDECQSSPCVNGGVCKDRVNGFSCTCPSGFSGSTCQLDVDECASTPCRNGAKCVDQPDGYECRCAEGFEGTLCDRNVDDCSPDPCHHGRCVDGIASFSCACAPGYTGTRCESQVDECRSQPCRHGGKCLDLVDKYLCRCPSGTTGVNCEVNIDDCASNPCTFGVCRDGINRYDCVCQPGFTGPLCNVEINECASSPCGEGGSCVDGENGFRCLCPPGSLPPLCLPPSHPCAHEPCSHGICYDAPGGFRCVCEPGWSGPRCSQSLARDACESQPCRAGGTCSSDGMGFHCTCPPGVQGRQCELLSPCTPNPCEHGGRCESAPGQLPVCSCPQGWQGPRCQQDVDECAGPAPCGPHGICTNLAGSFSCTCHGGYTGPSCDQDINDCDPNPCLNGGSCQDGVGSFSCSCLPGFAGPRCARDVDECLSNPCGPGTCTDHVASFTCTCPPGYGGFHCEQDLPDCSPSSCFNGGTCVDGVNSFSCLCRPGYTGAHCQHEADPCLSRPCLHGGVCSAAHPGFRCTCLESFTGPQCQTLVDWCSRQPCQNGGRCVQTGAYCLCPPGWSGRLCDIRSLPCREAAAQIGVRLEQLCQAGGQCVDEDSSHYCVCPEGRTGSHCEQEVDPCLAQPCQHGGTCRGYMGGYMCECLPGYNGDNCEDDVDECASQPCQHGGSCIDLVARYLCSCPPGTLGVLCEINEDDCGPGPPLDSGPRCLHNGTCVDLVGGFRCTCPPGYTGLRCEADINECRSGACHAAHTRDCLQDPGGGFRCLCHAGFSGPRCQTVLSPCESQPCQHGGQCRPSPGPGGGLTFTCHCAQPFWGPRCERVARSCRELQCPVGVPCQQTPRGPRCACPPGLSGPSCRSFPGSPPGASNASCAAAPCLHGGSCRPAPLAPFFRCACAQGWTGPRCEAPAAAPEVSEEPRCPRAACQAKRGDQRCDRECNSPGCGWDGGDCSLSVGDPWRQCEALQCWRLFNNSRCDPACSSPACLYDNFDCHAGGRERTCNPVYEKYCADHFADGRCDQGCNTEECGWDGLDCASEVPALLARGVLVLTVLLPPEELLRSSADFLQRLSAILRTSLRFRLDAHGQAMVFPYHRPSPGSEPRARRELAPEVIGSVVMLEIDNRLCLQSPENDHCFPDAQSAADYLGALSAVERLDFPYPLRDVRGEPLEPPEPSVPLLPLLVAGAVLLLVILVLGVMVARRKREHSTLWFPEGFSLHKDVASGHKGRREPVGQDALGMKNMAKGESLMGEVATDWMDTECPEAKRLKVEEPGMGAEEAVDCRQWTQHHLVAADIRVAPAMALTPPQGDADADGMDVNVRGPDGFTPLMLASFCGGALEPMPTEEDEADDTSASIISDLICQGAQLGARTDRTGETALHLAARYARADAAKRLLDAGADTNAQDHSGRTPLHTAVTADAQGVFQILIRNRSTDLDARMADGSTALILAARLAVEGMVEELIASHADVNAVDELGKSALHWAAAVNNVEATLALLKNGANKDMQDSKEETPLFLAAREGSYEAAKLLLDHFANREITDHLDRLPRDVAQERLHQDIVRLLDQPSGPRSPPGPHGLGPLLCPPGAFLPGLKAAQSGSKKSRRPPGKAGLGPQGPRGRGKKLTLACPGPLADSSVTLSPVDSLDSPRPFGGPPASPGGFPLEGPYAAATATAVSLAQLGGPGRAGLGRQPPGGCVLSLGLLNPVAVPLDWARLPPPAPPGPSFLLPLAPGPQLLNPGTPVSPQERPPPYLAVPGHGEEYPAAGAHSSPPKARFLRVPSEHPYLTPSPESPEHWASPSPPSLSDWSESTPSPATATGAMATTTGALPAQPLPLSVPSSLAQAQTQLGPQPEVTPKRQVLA
- test_name: small molecules binding NOTCH3 protein – biochemical, 635/667 nm fluorescence, primary screen (AID 1096)
- test_settings: small-molecule microarray, 635 nm fluorescence, higher = more signal
measured_quantity: composite z-score
Simply state the number, no unit and no words.

Example entries and their recorded answers appear below.
compound: CC1(C)C(=O)C(c2ccccc2)=C2CN3C(=O)N(CCc4ccccc4)C(=O)C3(Cc3ccccc3)C=C21 (centres undefined)
composite z-score: 1.12

compound: COCCOC(=O)N1C(=O)[C@@]2(c3cc(C#CCC(C(=O)OC)C(=O)OC)ccc31)[C@H](c1ccc(OCCO)cc1)N1[C@H](c3ccccc3)[C@H](c3ccccc3)OC(=O)[C@H]1[C@@H]2C(=O)NC[C@H](O)c1ccccc1
composite z-score: 1.08

compound: O=C1[C@H]2C=C(Br)[C@H](C[C@@H]2OCCOCCO)[C@@]12CO2
composite z-score: 0.235

composite z-score measured on [N-]=[N+]=Nc1ccccc1[C@H]1OC(c2ccc(OCCCO)cc2)=N[C@@]1(CCS(=O)(=O)c1ccccc1)C(=O)N1CCOCC1 = 1.09
